Catalogue of EC50 values
Study system: human sphingosine-1-phosphate receptor 1 (S1P1) (Homo sapiens)
Assay method text: β-Arrestin2 recruitment assay (PathHunter), S1P1 CHO-K1 cells
Assay type: cell-based
Recorded conditions: β-arrestin2 recruitment, S1P1; read-out: hS1P1 B-arrestin2 pEC50 (converted)
Sequence (P21453 whole entry): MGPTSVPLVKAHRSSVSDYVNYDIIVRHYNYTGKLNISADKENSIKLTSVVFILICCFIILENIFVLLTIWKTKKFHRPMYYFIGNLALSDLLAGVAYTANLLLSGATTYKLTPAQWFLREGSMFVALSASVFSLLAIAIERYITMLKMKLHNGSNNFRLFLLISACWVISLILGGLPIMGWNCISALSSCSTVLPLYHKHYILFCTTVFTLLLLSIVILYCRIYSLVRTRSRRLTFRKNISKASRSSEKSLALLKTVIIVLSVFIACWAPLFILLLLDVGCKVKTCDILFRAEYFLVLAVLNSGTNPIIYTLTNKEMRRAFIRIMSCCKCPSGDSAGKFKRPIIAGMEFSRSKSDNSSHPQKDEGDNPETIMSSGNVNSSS
Sequence (P32121 whole entry partner): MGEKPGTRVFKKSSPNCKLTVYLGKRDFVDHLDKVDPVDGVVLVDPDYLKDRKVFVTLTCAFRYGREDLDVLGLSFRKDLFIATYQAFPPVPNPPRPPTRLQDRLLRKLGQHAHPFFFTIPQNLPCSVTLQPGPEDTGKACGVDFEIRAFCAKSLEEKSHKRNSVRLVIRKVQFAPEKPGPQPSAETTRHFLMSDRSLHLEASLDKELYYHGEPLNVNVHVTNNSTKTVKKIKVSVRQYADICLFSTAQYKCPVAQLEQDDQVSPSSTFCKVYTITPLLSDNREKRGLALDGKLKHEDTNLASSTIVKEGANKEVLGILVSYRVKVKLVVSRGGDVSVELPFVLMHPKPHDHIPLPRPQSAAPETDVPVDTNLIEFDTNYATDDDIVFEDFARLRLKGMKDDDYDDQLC
Metric: EC50

> print(dat)
                               input.smiles  reported.value
1  Cc1ccncc1-c1noc(-c2ccc3c(c2)nnn3C2CCC2)n1         < 10 µM
2  CCC1(CC)CC(=O)c2cc(-c3nc(-c4cccnn4)no3)ccc2O1         > 10 µM
3  CC(C)n1ccc2cc(-c3noc(-c4ccccc4C(F)(F)F)n3)ccc21         < 10 µM
4         Cc1ccncc1-c1noc(-c2ccc3ccsc3n2)n1         > 10 µM
5  CC(C)Nc1ccc(-c2nnc(-c3cccc4[nH]cnc34)o2)cc1C#N         < 10 µM
6  CCC1(CC)CC(=O)c2cc(-c3nc(-c4ccnc(C(=O)NC)c4)no3)ccc2O1         > 10 µM
7  Cc1ccccc1-c1nsc(-c2ccc3c(ccn3C(C)C)c2)n1         < 10 µM
8  CCC1(CC)CC(=O)c2cc(-c3nc(-c4cc[nH]c4)no3)ccc2O1         > 10 µM
9  CCC1(CC)CC(=O)c2cc(-c3nc(-c4cnccn4)no3)ccc2O1         > 10 µM

====

Study system: human sphingosine-1-phosphate receptor 1 (S1P1) (Homo sapiens)
Assay method text: Inhibition of cAMP production (HTRF cAMP HiRange), S1P1 CHO-K1 cells
Format: cell-based
Recorded conditions: inhibition of cAMP production, S1P1; read-out: hS1P1 CAMP pEC50 (converted)
Sequence (P21453 whole entry): as the sequence (P21453 whole entry) above
Metric: EC50

> print(dat)
                                    compound  metric  reported.value
 1  CC(C)n1nnc2cc(-c3nc4cccc(Br)c4o3)ccc21 [Compound 429]    EC50        > 316 nM
 2  CC(C)(CO)n1nnc2cc(-c3noc(-c4ccncc4C(F)(F)F)n3)ccc21 [Compound 626]    EC50        > 316 nM
 3  N#Cc1cc(-c2nnc(-c3ccc4[nH]cnc4c3)o2)ccc1NC(CF)CF [Compound 600]    EC50        < 316 nM
 4  CCC1(CC)CC(=O)c2cc(-c3nc(-c4ccc5sc(N)nc5c4)no3)ccc2O1 [Compound 446]    EC50        > 316 nM
 5  CC(C)n1nnc2cc(-c3nc(-c4cccs4)co3)ccc21 [Compound 459]    EC50        > 316 nM
 6  N#Cc1cc(-c2nnc(-c3ccc4[nH]c(=O)oc4c3)o2)ccc1NCCF [Compound 487]    EC50        > 316 nM
 7  CC(C)n1ccc2cc(-c3nsc(-c4ccccc4F)n3)ccc21 [Compound 380]    EC50        > 316 nM
 8  O=C1CNc2ccc(-c3nc(-c4cn[nH]c4)no3)cc2N1 [Compound 645]    EC50        > 316 nM
 9  COc1ccccc1-c1nc(-c2ccc3c(ccn3C(C)C)c2)ns1 [Compound 375]    EC50        < 316 nM
10  CCC1(CC)CC(=O)c2cc(-c3nc(-c4ccnc(NC(C)=O)c4)no3)ccc2O1 [Compound 512]    EC50        < 316 nM
11  CC(C)Nc1ccc(-c2nc(-c3ccc4c(c3)C(=O)NCC4)no2)cc1C#N [Compound 514]    EC50        < 316 nM
12  CCC1(CC)CC(=O)c2cc(-c3nc(-c4cn[nH]c4)no3)ccc2O1 [Compound 469]    EC50        < 316 nM
13  CC(C)Oc1ccc(-c2ncc(-c3ccc4c(c3)nnn4C(C)C)cn2)cc1C#N [Compound 595]    EC50        < 316 nM
14  CCC1(CC)CC(=O)c2cc(-c3nc(-c4ccc(NC(C)=O)cc4OC(F)(F)F)no3)ccc2O1 [Compound 584]    EC50        < 316 nM
15  CCC1(CC)CC(=O)c2cc(-c3nc(-c4cncc(NS(C)(=O)=O)c4)no3)ccc2O1 [Compound 545]    EC50        < 316 nM
16  CC(C)Nc1ccc(-c2nc(-c3ccc4c(c3)NC(=O)C4)no2)cc1C#N [Compound 496]    EC50        < 316 nM
17  CC(C)n1nnc2cc(-c3nc(-c4ccc5nonc5c4)no3)ccc21 [Compound 498]    EC50        < 316 nM
18  CCC1(CC)CC(=O)c2cc(-c3nc(-c4cccnc4C)no3)ccc2O1 [Compound 564]    EC50        < 316 nM
19  COc1cnccc1-c1nc(-c2ccc3c(c2)nnn3C(C)C)no1 [Compound 606]    EC50        < 316 nM
20  CNc1ccccc1-c1nc(-c2ccc3c(c2)nnn3C(C)C)no1 [Compound 599]    EC50        < 316 nM
21  CC(C)n1nnc2cc(-c3nc4c(Br)cccc4o3)ccc21 [Compound 428]    EC50        > 316 nM
22  CCC1(CC)CC(=O)c2cc(-c3nc(-c4ccnc(S(N)(=O)=O)c4)no3)ccc2O1 [Compound 616]    EC50        < 316 nM
23  O=C1c2cc(-c3nc(-c4ccncc4)no3)ccc2OC(CO)(CO)C1Br (centres unmarked) [Compound 483]    EC50        > 316 nM
24  CC1CC(=O)c2ccc(-c3nc(-c4cccnc4)no3)cc2O1 (centres unmarked) [Compound 535]    EC50        > 316 nM
25  Cc1ccccc1-c1nc(-c2ccc3c(ccn3C(C)C)c2)no1 [Compound 389]    EC50        < 316 nM
26  CC(C)(O)Cn1nnc2cc(-c3nc(-c4cccc5cc[nH]c45)no3)ccc21 [Compound 577]    EC50        > 316 nM
27  CC(C)Nc1ccc(-c2ccc(-c3ccc4c(c3)nnn4C(C)C)cc2)cc1C#N [Compound 507]    EC50        < 316 nM
28  CC(C)Nc1ccc(-c2nnc(-c3cccc4[nH]cnc34)o2)cc1C#N [Compound 585]    EC50        < 316 nM
29  CCC1(CC)CC(=O)c2cc(-c3nc(-c4cncc(N)c4)no3)ccc2O1 [Compound 502]    EC50        < 316 nM
30  CC(C)n1nnc2cc(-c3noc(-c4cccc5c4CCC5O)n3)ccc21 (centres unmarked) [Compound 636]    EC50        < 316 nM
31  Cc1nccnc1-c1nc(-c2ccc3c(c2)nnn3CC(C)(C)CO)no1 [Compound 540]    EC50        > 316 nM
32  COc1ccc(-c2nc(-c3ccc4c(c3)nnn4C(C)(C)CO)no2)c(C)c1 [Compound 610]    EC50        > 316 nM
33  CCC1(CC)CC(=O)c2cc(-c3nc(-c4ccnc(C(N)=O)c4)no3)ccc2O1 [Compound 555]    EC50        < 316 nM
34  CCC1(CC)CC(=O)c2cc(-c3ncc(-c4ccccn4)cn3)ccc2O1 [Compound 530]    EC50        > 316 nM
35  CC(C)(O)Cn1nnc2cc(-c3nc(-c4ccc5nc[nH]c5c4)no3)ccc21 [Compound 501]    EC50        > 316 nM
